- TEST PROTOCOL: folding stability dG unfold from chymotrypsin proteolysis; higher = more stable
Binary classification by folding stability dG unfold, with 3 kcal/mol as an inclusive lower bound for YES; all other cases are NO.

Record SAGPMTLEILYKRPANEPFTLEDLELAKEVEEAVAALVPSKYKVRIKSIEYEKYPDYYYIRVTIEVEKPSAG [r5_121_TrMRF] ; criterion: folding stability dG unfold no lower than 3 kcal/mol. Met?
YES

Record MKPLTPEEVKKIAEGIAKEIEKAAKALGIDKVEVPVKIEKLPDGGYKIIIEVKLYKDDKKIGTFPIEIYIDS [r1_364_TrMRF] ; criterion: folding stability dG unfold no lower than 3 kcal/mol. Met?
YES

Record SAGGGLTEEQLEEEAREVAERVEKEFAEATGIEPVEILSVEVFPDGTVRITLRFKGKGGLVTYTIPLSAGGS [r16_622_TrMRF] ; criterion: folding stability dG unfold no lower than 3 kcal/mol. Met?
YES

Record SAGGSAGGKKVIVKIKIKVKDKETGEEKEIEITLEFETEEEAKAAIEALKALPPGVEIKIELLPSAGGSAGG [r6_999_TrROS_Hall] ; criterion: folding stability dG unfold no lower than 3 kcal/mol. Met?
NO

Record SAGGSAGGSAGASPTAPAVTVEVKTEEVPNNDLLKTTTTTYFPGTGTTVTTETILPPGLGSAGGSAGGSAGG [r11_746_JUSTAS] ; criterion: folding stability dG unfold no lower than 3 kcal/mol. Met?
NO

Record SAGGSAGGSAGGGMILNITLIRPDGKPIVIEGPLDKPLYNPKKAGIENIPPEKLVKVEPRSAGGSAGGSAGG [r7_745_TrMRF] ; criterion: folding stability dG unfold no lower than 3 kcal/mol. Met?
NO

Record SAGGSAGGSDPTAPVITTVPFPSGAVLTITTYPDSVTITYPSPGTTYTVPASAPIPITYQPALSAGGSAGGS [r12_227_JUSTAS] ; criterion: folding stability dG unfold no lower than 3 kcal/mol. Met?
NO

Record SAGGSAGGSAMKVGEEVEVTVRIKVDGKEYEVKAKATLDEDGNVTLEVEIKAKEGKVEIEIESAGGSAGGSA [r18_428_TrROS_Hall] ; criterion: folding stability dG unfold no lower than 3 kcal/mol. Met?
NO

Record SAGGSGMIYVIKIKLEPTIKPGKKKEFEFELVLEATPEEIEEVLEKIKKLPKNIKIKEIKIEVFPESAGGSA [r2_75_TrMRF] ; criterion: folding stability dG unfold no lower than 3 kcal/mol. Met?
YES

Record SAGGSKKTIVIPVPPGMSVEQIAAELKAKLEELFPDLKVEVVEVKPDGYVKIKIDGKLILIKFPKPSAGGSA [r2_102_TrROS_Hall] ; criterion: folding stability dG unfold no lower than 3 kcal/mol. Met?
YES

Record SAGGSAGGSAMKIVKIEVVENEDGEKYVKIEIELENGEKIEITLPLEELENMSLEELLKLLKSAGGSAGGSA [r18_129_TrROS_Hall] ; criterion: folding stability dG unfold no lower than 3 kcal/mol. Met?
YES

Record SAGMKVTTKTYTLTLTLPDGTRELKVTFTTPPDGYTATITDPNSSKVITLPFSSEEEARSAIEAIAARLSAG [r5_480_JUSTAS] ; criterion: folding stability dG unfold no lower than 3 kcal/mol. Met?
NO

Record SAGGSAGGNKIWIPITITFMVPVRKDPDGKPKLSPEDPDRWKPVEFEIPIEIDPDPDNGKIKIWSAGGSAGG [r6_537_TrROS] ; criterion: folding stability dG unfold no lower than 3 kcal/mol. Met?
NO

Record SAGGSAGGSAGGMYFIRIKPPNGEELVILIPPGDEIKIKDADGRPWKITDVYPMPPEQFSAGGSAGGSAGGS [r10_422_TrROS] ; criterion: folding stability dG unfold no lower than 3 kcal/mol. Met?
NO

meta.source: the supplement of paper PMC12764529
